logD at 1 h values by entry
Assay: physchem
Type: physicochemical
Conditions: pH 7.4, LogD, pH 7.4 (mean)

Known logD at 1 h results, listed for orientation:
                                   compound  result
0  O=C(O)[C@@H]1[C@@H]2CC[C@@]1(C(=O)Nc1ccc(S(=O)(=O)Nc3nccs3)cc1)C2 (relative stereo)     < 1
1  O=C(NC1CCN(CCCCC2(C(=O)NCC(F)(F)F)c3ccccc3-c3ccccc32)CC1)c1ccccc1-c1ccc(C(F)(F)F)cc1 [Lomitapide, reference compound]   > 4.5

Could you now look at the following compound, please?
Record request: logD at 1 h value, item COC(=O)Nc1nc2ccc(C(=O)c3ccccc3)cc2[nH]1 [Mebendazole, reference compound]
3.12

Values compiled from paper PMC10396955.
